- target.of.assay: UniProt:P28482
- Sequence (P28482 whole entry): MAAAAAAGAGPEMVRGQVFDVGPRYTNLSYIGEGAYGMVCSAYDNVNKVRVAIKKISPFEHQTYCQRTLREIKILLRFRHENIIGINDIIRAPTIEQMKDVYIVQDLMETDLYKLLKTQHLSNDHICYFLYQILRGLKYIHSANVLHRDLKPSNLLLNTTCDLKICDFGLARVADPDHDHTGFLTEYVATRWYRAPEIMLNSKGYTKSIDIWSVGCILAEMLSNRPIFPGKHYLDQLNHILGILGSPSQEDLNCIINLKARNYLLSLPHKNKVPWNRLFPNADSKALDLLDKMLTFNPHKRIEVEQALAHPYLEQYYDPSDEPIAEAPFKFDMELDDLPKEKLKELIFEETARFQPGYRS
- experimental.protocol: Active Human ERK2 (hERK2) Activity Assay (IMAP-FP)
- Type: biochemical
- particulars: phosphorylated active hERK2, 30 μM ATP; average; read-out: ERK 2 Human average IC50
outcome.measure: IC50 (nM)

Cc1cc(-c2n[nH]c3cc(NC(=O)NCC4CCCCC4)ncc23)ccn1 [Example 578]    0.561
C[C@@H](NC(=O)Nc1cc2[nH]nc(-c3cnn(C)c3)c2cn1)c1ccc(Cl)cc1 [Example 59]    0.514

[A] C[C@@H](NC(=O)Nc1cc2[nH]nc(-c3ccc4nn(C)cc4c3)c2cn1)c1ccccc1 [Example 651]
[B] COC(=O)[C@H](C)NC(=O)Nc1cc2[nH]nc(-c3ccnc(C)c3)c2cn1 [Example 455]
[C] Cc1cc(-c2n[nH]c3cc(NC(=O)NC4(c5ccncc5)CC4)ncc23)ccn1 [Example 356]
[D] C[C@@H](NC(=O)Nc1cc2[nH]nc(-c3cnc(O)nc3)c2cn1)c1ccccc1 [Example 290]
[E] Cc1cc(-c2n[nH]c3cc(NC(=O)NCc4cc5ccccc5cn4)ncc23)ccn1 [Example 395]
Order the items by recorded IC50; the first position goes to the largest value. Enter labels, ranked according to the request.
B, C, E, D, A

Where do these numbers come from? They come from patent US9023865B2.
